target or system: 5-hydroxytryptamine receptor 1A (Rattus norvegicus) (UniProt P19327)
Sequence (P19327 whole entry): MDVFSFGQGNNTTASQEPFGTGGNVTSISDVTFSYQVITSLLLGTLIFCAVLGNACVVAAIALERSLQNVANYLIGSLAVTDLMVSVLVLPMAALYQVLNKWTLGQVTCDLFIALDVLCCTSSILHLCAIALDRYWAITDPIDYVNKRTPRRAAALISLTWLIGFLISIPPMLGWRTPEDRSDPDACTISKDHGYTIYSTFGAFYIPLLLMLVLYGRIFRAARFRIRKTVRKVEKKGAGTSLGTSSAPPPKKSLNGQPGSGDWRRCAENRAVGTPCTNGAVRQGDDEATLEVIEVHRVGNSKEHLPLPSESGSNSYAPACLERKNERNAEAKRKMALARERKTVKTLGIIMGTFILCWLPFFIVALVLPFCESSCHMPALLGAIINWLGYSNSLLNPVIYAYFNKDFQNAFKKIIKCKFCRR
experiment: Ratio of binding affinity to 5-HT 1A and D2 receptor
reported endpoint: Ratio

Would you please look over these solved cases?
CC1=COc2ccccc2C(=O)N1CCCCN1CCN(c2ncccn2)CC1
108
O=C1c2ccccc2OC=C(Cl)N1CCCCN1CC=C(c2ccccn2)CC1 [PICLOZOTAN]
179

P: O=C1c2ccccc2OC=C(Cl)N1CCCCN1CCN(c2ncccn2)CC1
Q: O=C1c2ccccc2OC=C(Cl)N1CCCCN1CCN(c2ccccn2)CC1
Please choose the item with the lower Ratio value from this pair: P and Q // return label of chosen record Q

----------
target or system: D(2) dopamine receptor (Rattus norvegicus, UniProt P61169)
Sequence (P61169 whole entry): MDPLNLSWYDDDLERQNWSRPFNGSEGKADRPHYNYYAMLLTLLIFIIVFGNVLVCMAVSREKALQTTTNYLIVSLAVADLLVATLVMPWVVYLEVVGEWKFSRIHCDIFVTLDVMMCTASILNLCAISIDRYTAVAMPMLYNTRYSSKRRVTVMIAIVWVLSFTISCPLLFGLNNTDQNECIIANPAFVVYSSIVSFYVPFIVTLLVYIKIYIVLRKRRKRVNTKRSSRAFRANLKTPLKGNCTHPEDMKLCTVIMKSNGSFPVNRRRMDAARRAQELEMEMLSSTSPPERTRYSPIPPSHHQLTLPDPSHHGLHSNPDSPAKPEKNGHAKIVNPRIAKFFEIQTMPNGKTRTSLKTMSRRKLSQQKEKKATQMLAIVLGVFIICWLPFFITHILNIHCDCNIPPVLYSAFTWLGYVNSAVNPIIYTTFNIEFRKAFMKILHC
experiment: Binding affinity to Dopamine receptor D2 in of rat striatum membrane with [3H]- raclopride as radioligand
reported endpoint: IC50 (nM)

O=C1c2ccccc2OC=C(Cl)N1CCCCN1CC=C(c2ccccn2)CC1
84

1: O=C1c2ccccc2OC=C(Cl)N1CCCCN1CCN(c2ncccn2)CC1
2: CC1=COc2ccccc2C(=O)N1CCCCN1CCN(c2ncccn2)CC1
# argmax over IC50 for candidates 1 and 2 // return label of chosen record 2
(2: 1100 nM, 1: 199 nM)
